For each of the sequences below, state its shrunken log2 fold change.
System: Escherichia coli TOP10;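 note: peptides expressed intracellularly from a pBAD plasmid library in pooled LB shake-flask culture, induced with 0.3% L-arabinose, DNA abundance read by NGS, three biological replicates, DESeq2 with apeglm shrinkage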
Experiment: shrunken log2 fold change of peptide-encoding DNA abundance (4.5 h post-induction vs induction); higher = less antimicrobial activity (less host growth inhibition)
Settings: time post-induction: 4.5 h; library: site-saturation at positions 5, 18, 19, 20
API doc: respond with a numeric literal and nothing else, no unit.

What value of shrunken log2 fold change has been recorded for this entry: "RRIRGRPPRLPRPRPRPQPSPRP"
0.65

Also "RRIRFRPPRLPRPRPRPAYEPRP" ?
0.0737

Also "RRIRKRPPRLPRPRPRPGVKPRP" ?
0.0127

Also "RRIRSRPPRLPRPRPRPLMGPRP" ?
-0.271

Also "RRIRARPPRLPRPRPRPERKPRP" ?
1.16

Also "RRIRCRPPRLPRPRPRPAPSPRP" ?
0.504

Also "RRIRLRPPRLPRPRPRPSRMPRP" ?
-0.241

Also "RRIRVRPPRLPRPRPRPVNQPRP" ?
-0.0283

Also "RRIRDRPPRLPRPRPRPYVCPRP" ?
0.0261

Also "RRIRNRPPRLPRPRPRPFSEPRP" ?
-0.0347

Also "RRIRVRPPRLPRPRPRPRRWPRP" ?
0.334

Also "RRIRHRPPRLPRPRPRPSRTPRP" ?
0.138

Also "RRIRFRPPRLPRPRPRPVYKPRP" ?
-0.295

Also "RRIRTRPPRLPRPRPRPHDPPRP" ?
-0.283

Also "RRIRNRPPRLPRPRPRPGILPRP" ?
-0.337

Also "RRIRRRPPRLPRPRPRPIRDPRP" ?
0.196

Also "RRIRCRPPRLPRPRPRPTCRPRP" ?
0.211

Also "RRIRTRPPRLPRPRPRPFSNPRP" ?
-0.405

Also "RRIRLRPPRLPRPRPRPRPTPRP" ?
0.484

Also "RRIRQRPPRLPRPRPRPDCYPRP" ?
-0.304

Also "RRIRYRPPRLPRPRPRPTATPRP" ?
-0.038

Also "RRIRSRPPRLPRPRPRPAAVPRP" ?
0.418

Also "RRIRARPPRLPRPRPRPKKGPRP" ?
0.364

Also "RRIRKRPPRLPRPRPRPNFVPRP" ?
0.309

Also "RRIRLRPPRLPRPRPRPWDSPRP" ?
-0.145

Also "RRIRNRPPRLPRPRPRPTMIPRP" ?
-0.387

Also "RRIRARPPRLPRPRPRPYVMPRP" ?
-0.211

Also "RRIRDRPPRLPRPRPRPGHAPRP" ?
0.648

Also "RRIRHRPPRLPRPRPRPGDDPRP" ?
-0.044

Also "RRIRDRPPRLPRPRPRPEMAPRP" ?
0.0683

Also "RRIRHRPPRLPRPRPRPWDPPRP" ?
-0.243

Also "RRIRWRPPRLPRPRPRPKWWPRP" ?
0.266

Also "RRIRQRPPRLPRPRPRPKLNPRP" ?
-0.165

Also "RRIRGRPPRLPRPRPRPANYPRP" ?
0.0041

Also "RRIRKRPPRLPRPRPRPFLWPRP" ?
-0.119

Also "RRIRQRPPRLPRPRPRPTNFPRP" ?
-0.159

Also "RRIRGRPPRLPRPRPRPHEQPRP" ?
0.0117

Also "RRIRTRPPRLPRPRPRPMVRPRP" ?
-0.0017

Also "RRIRQRPPRLPRPRPRPLENPRP" ?
-0.0226

Also "RRIRNRPPRLPRPRPRPLYDPRP" ?
-0.0765

Also "RRIRFRPPRLPRPRPRPVSVPRP" ?
-0.341

Also "RRIRIRPPRLPRPRPRPYNTPRP" ?
-0.725

Also "RRIRARPPRLPRPRPRPVWRPRP" ?
0.873

Also "RRIRVRPPRLPRPRPRPTSDPRP" ?
0.431

Also "RRIRTRPPRLPRPRPRPSPPPRP" ?
-0.0898

Also "RRIRERPPRLPRPRPRPMVFPRP" ?
0.0276

Also "RRIRQRPPRLPRPRPRPRNCPRP" ?
5

Also "RRIRFRPPRLPRPRPRPGKNPRP" ?
0.0341

Also "RRIRFRPPRLPRPRPRPPWAPRP" ?
0.267

Also "RRIRTRPPRLPRPRPRPDLCPRP" ?
0.144
